Origin of measurements: ChEMBL document CHEMBL1146317

species: Rattus norvegicus; assay: Inhibition of testoterone-induced prostate weight in castrated immature Sprague-Dawley rat; format: functional, Prostate gland
Measure name: ID50
Answer with the number, then the unit.

Some solved cases for reference:
Molecule: CC(O)(CS(=O)(=O)c1ccc(F)cc1)C(=O)Nc1ccc(C#N)c(C(F)(F)F)c1 (stereo unspecified) [BICALUTAMIDE]
ID50: 0.23 mg/day

Molecule: FC(F)(F)Cc1nc2cc(Cl)c(Cl)cc2n1Cc1ccc(Cl)cc1
ID50: 0.28 mg/day

Molecule: FC(F)(F)Cc1nc2cc(Cl)c(Cl)cc2n1Cc1cccc(C(F)(F)F)c1
ID50: 0.4 mg/day

Molecule: FC(F)(F)Cc1nc2cc(Cl)c(Cl)cc2n1Cc1ccccc1
ID50: 0.37 mg/day

Molecule: FC(F)(F)Cc1nc2cc(Cl)c(Cl)cc2n1Cc1ccccc1-c1ccccc1
ID50: 0.55 mg/day

Now for a further molecule.
"Fc1ccccc1Cn1c(CC(F)(F)F)nc2cc(Cl)c(Cl)cc21" has a reported ID50 of 0.82 mg/day

###

species on record: Rattus norvegicus; assay: Inhibition of testoterone-induced prostate weight in castrated immature Sprague-Dawley rat at 2 mg/day relative to control; assay type: functional, Prostate gland
Quick rule for you: Inhibition under 60% gets y, anything else gets n.

Compound: O=[N+]([O-])c1cccc(Cn2c(CC(F)(F)F)nc3cc(Cl)c(Cl)cc32)c1
Class assignment: y

Here's an entry: "O=C(Cn1c(CC(F)(F)F)nc2cc(Cl)c(Cl)cc21)c1ccc(Cl)cc1" . Is its Inhibition below 60%?
y

Decide: Inhibition of "FC(F)(F)Cc1nc2cc(Cl)c(Cl)cc2n1Cc1ccccc1Cl" strictly below 60%?
n

Just wondering, is Inhibition of "Fc1c(F)c(F)c(Cn2c(CC(F)(F)F)nc3cc(Cl)c(Cl)cc32)c(F)c1F" below 60%?
y

In the record for "FC(F)(F)Cc1nc2cc(Cl)c(Cl)cc2n1Cc1ccccc1Br" , is Inhibition less than 60%?
n

For CC(O)(CS(=O)(=O)c1ccc(F)cc1)C(=O)Nc1ccc(C#N)c(C(F)(F)F)c1 (stereo not drawn) [BICALUTAMIDE] , is the recorded Inhibition below the cut-off of 60%?
n

###

organism: Rattus norvegicus; test: Inhibition of testoterone-induced prostate weight in castrated immature Sprague-Dawley rat at 2 mg/day relative to control; format: functional, Prostate gland
Hi! Just check whether Inhibition is below 50%. Below gives class 1, equal or above gives class 0.

Completed entries (count: 4):
Compound structure string: Fc1ccc(Cn2c(CC(F)(F)F)nc3cc(Cl)c(Cl)cc32)cc1
Class assignment: class 0
//
Compound structure string: FC(F)(F)Cc1nc2cc(Cl)c(Cl)cc2n1Cc1ccccc1-c1ccccn1
Class assignment: class 0
//
Compound structure string: O=[N+]([O-])c1ccc(Cn2c(CC(F)(F)F)nc3cc(Cl)c(Cl)cc32)cc1
Class assignment: class 0
//
Compound structure string: FC(F)(F)Cc1nc2cc(Cl)c(Cl)cc2n1Cc1ccc(SC(F)(F)F)cc1
Class assignment: class 1

# input for lookup
Would you kindly verify if Inhibition of "FC(F)(F)Cc1nc2cc(Cl)c(Cl)cc2n1Cc1ccc(OCc2ccccc2)cc1" is strictly less than 50%?
class 1
